system: NCI-H524 (ATCC) human lung cancer cells; format: cell-based; settings: Table 15; treated 2 hours, further incubated 70 hours; read-out: H524 IC50
Metric name: pIC50
Scale explanation: pIC50 corresponds to minus log10 of a concentration expressed in moles per litre.

Here are 5 compounds together with their reported answers.
COc1cc2cc(c1Cl)N(C)C(=O)C[C@H](OC(=O)[C@H](C)N(C)C(=O)CCS)[C@]1(C)O[C@H]1[C@H](C)[C@@H]1C[C@@](O)(NC(=O)O1)[C@H](OC)/C=C/C=C(\C)C2 [DM-1, reference compound] ... 7.05
CCNC(=O)N[C@H](Cc1ccccc1)C(=O)N[C@H]1CSSC[C@@H](C(=O)N[C@H](C(=O)NCCSSCCC(=O)N(C)[C@@H](C)C(=O)O[C@H]2CC(=O)N(C)c3cc(cc(OC)c3Cl)C/C(C)=C/C=C/[C@@H](OC)[C@@]3(O)C[C@H](OC(=O)N3)[C@@H](C)[C@@H]3O[C@@]23C)[C@@H](C)O)NC(=O)[C@H]([C@@H](C)O)NC(=O)[C@H](CCCCN)NC(=O)[C@@H](Cc2c[nH]c3ccccc23)NC(=O)[C@H](Cc2ccc(O)cc2)NC1=O [Conjugate 65] ... 7.52
COc1cc2cc(c1Cl)N(C)C(=O)C[C@H](OC(=O)[C@H](C)N(C)C(=O)CCSSCCC(=O)NCCNC(=O)[C@@H](NC(=O)[C@@H]1CSSC[C@H](NC(=O)[C@H](N)Cc3c[nH]c4ccccc34)C(=O)N[C@@H](Cc3ccc(O)cc3)C(=O)N[C@H](Cc3c[nH]c4ccccc34)C(=O)N[C@@H](CCCCN)C(=O)N[C@@H]([C@@H](C)O)C(=O)N1)[C@@H](C)O)[C@]1(C)O[C@H]1[C@H](C)[C@@H]1C[C@@](O)(NC(=O)O1)[C@H](OC)/C=C/C=C(\C)C2 [Conjugate 51] ... 6.91
COc1cc2cc(c1Cl)N(C)C(=O)C[C@H](OC(=O)[C@H](C)N(C)C(=O)CCSSC[C@H](NC(=O)[C@@H]1CSSC[C@H](NC(=O)[C@H](N)Cc3ccccc3)C(=O)N[C@@H](Cc3ccc(O)cc3)C(=O)N[C@H](Cc3c[nH]c4ccccc34)C(=O)N[C@@H](CCCCN)C(=O)N[C@@H]([C@@H](C)O)C(=O)N1)C(N)=O)[C@]1(C)O[C@H]1[C@H](C)[C@@H]1C[C@@](O)(NC(=O)O1)[C@H](OC)/C=C/C=C(\C)C2 [Conjugate 57] ... 6.87
CCCCCCCCN[C@H](Cc1ccccc1)C(=O)N[C@H]1CSSC[C@@H](C(=O)N[C@H](C(=O)NCCSSCCC(=O)N(C)[C@@H](C)C(=O)O[C@H]2CC(=O)N(C)c3cc(cc(OC)c3Cl)C/C(C)=C/C=C/[C@@H](OC)[C@@]3(O)C[C@H](OC(=O)N3)[C@@H](C)[C@@H]3O[C@@]23C)[C@@H](C)O)NC(=O)[C@H]([C@@H](C)O)NC(=O)[C@H](CCCCN)NC(=O)[C@@H](Cc2c[nH]c3ccccc23)NC(=O)[C@H](Cc2ccc(O)cc2)NC1=O [Conjugate 55] ... 7.33

Problem: Any idea what its pIC50 is? The compound is COc1cc2cc(c1Cl)N(C)C(=O)C[C@H](OC(=O)[C@H](C)N(C)C(=O)CCSSCC(=O)NCCNC(=O)CC[C@H]1C(=O)N[C@@H](Cc3ccc(O)cc3)C(=O)N[C@H](Cc3c[nH]c4ccccc34)C(=O)N[C@@H](CCCCN)C(=O)N[C@@H]([C@@H](C)O)C(=O)N[C@@H](Cc3ccccc3)C(=O)N1C)[C@]1(C)O[C@H]1[C@H](C)[C@@H]1C[C@@](O)(NC(=O)O1)[C@H](OC)/C=C/C=C(\C)C2 [Conjugate 30]
Solution: 6.33

Problem: Any idea what its pIC50 is? The compound is COc1cc2cc(c1Cl)N(C)C(=O)C[C@H](OC(=O)[C@H](C)N(C)C(=O)CCSCCCN[C@H](Cc1ccccc1)C(=O)N[C@H]1CSSC[C@@H](C(=O)N[C@H](CO)[C@@H](C)O)NC(=O)[C@H]([C@@H](C)O)NC(=O)[C@H](CCCCN)NC(=O)[C@@H](Cc3c[nH]c4ccccc34)NC(=O)[C@H](Cc3ccccc3)NC1=O)[C@]1(C)O[C@H]1[C@H](C)[C@@H]1C[C@@](O)(NC(=O)O1)[C@H](OC)/C=C/C=C(\C)C2 [Conjugate 100]
Solution: 6.52

Problem: Any idea what its pIC50 is? The compound is COc1cc2cc(c1Cl)N(C)C(=O)C[C@H](OC(=O)[C@H](C)N(C)C(=O)CCSSCCCN[C@H](Cc1ccccc1)C(=O)N[C@H]1CSSC[C@@H](C(=O)N[C@H](CO)[C@@H](C)O)NC(=O)[C@H]([C@@H](C)O)NC(=O)[C@H](CCCCN)NC(=O)[C@@H](Cc3c[nH]c4ccccc34)NC(=O)[C@H](Cc3ccccc3)NC1=O)[C@]1(C)O[C@H]1[C@H](C)[C@@H]1C[C@@](O)(NC(=O)O1)[C@H](OC)/C=C/C=C(\C)C2 [Conjugate 76]
Solution: 6.92

Problem: Any idea what its pIC50 is? The compound is COc1cc2cc(c1Cl)N(C)C(=O)C[C@H](OC(=O)[C@H](C)N(C)C(=O)CCSSCCOCCOCCOCCOCCCN[C@H](Cc1ccccc1)C(=O)N[C@H]1CSSC[C@@H](C(=O)N[C@H](CO)[C@@H](C)O)NC(=O)[C@H]([C@@H](C)O)NC(=O)[C@H](CCCCN)NC(=O)[C@@H](Cc3c[nH]c4ccccc34)NC(=O)[C@H](Cc3ccccc3)NC1=O)[C@]1(C)O[C@H]1[C@H](C)[C@@H]1C[C@@](O)(NC(=O)O1)[C@H](OC)/C=C/C=C(\C)C2 [Conjugate 96]
Solution: 6.69

Problem: Any idea what its pIC50 is? The compound is COc1cc2cc(c1Cl)N(C)C(=O)C[C@H](OC(=O)[C@H](C)N(C)C(=O)CCSSCCNC(=O)[C@@H](NC(=O)[C@@H]1CSSC[C@H](NC(=O)[C@H](N)Cc3ccccc3)C(=O)N[C@@H](Cc3csc4ccccc34)C(=O)N[C@H](Cc3c[nH]c4ccccc34)C(=O)N[C@@H](CCCCN)C(=O)N[C@@H]([C@@H](C)O)C(=O)N1)[C@@H](C)O)[C@]1(C)O[C@H]1[C@H](C)[C@@H]1C[C@@](O)(NC(=O)O1)[C@H](OC)/C=C/C=C(\C)C2 [Conjugate 37]
Solution: 7.36

All figures here come from patent US10322191B2.
